The reported numbers originate from patent US20230020329A1.

assay protocol: Thermodynamic (shake-flask) solubility
Assay type: physicochemical
condition details: deionized water, water, thermodynamic from solid; read-out: Solubility in water
Procedure: The test compound of general formula 1 or 2 (2 mg) was weighed into a glass vial. The pION universal buffer (0.5 ml) with pH 7.4 or deionized water was added to appropriate vials. […] The optical density of the resulting solutions was measured on a multifunction Infinite 200 PRO plate reader in the wavelength range from 240 nm to 400 nm in steps of 10 nm. The value of ODλ for solutions was assessed at a wavelength chosen for plotting a calibration curve. […]
measured attribute: solubility at 24 h
Answer format: value, then unit.

// known answers, use as guide
C[C@H]1CO[C@@H]2Cn3cc(C(=O)NCc4ccc5nonc5c4)c(=O)c(O)c3C(=O)N12    2.85 µg/mL
C[C@H]1CO[C@@H]2Cn3cc(C(=O)NCc4ccc(F)nc4F)c(=O)c(O)c3C(=O)N12    269 µg/mL
C[C@H]1CO[C@@H]2Cn3cc(C(=O)NCc4ccc(F)cc4F)c(=O)c(O)c3C(=O)N12 [CAB, Cabotegravir, reference compound]    8 µg/mL

Pending compound:
Input: Quick one: solubility at 24 h of C[C@H]1CO[C@@H]2Cn3cc(C(=O)NCc4ccc(F)nc4F)c(=O)c([O-])c3C(=O)N12.[Na+] ?
Output: 2680 µg/mL

* * *

System: HIV-1 (IIIB strain)
assay protocol: Anti-HIV cytoprotection assay (XTT), HIV-1 IIIB in CEM-SS cells
Type: cell-based
condition details: Human immunodeficiency virus 1, IIIB, CEM-SS, CEM-SS cell line; read-out: Inhibitory activity (EC50) against HIV-1 (IIIB strain)
measured attribute: EC50

// known answers, use as guide
O=C(NCc1c(F)cncc1F)c1cn2c(c(O)c1=O)C(=O)N1[C@H]3CC[C@H](C3)O[C@@H]1C2    2 to 10 nM
C[C@H]1CO[C@@H]2Cn3cc(C(=O)NCc4cc5c(cc4Br)OCO5)c(=O)c(O)c3C(=O)N12    < 2 nM
C[C@H]1CO[C@@]23CCC[C@@H]2n2cc(C(=O)NCc4ccc(F)nc4F)c(=O)c(O)c2C(=O)N13    ~10 nM

Pending molecule:
Input: For HIV-1 (IIIB strain), provide EC50 of C[C@H]1CO[C@@H]2Cn3cc(C(=O)NCc4c(F)cncc4F)c(=O)c(O)c3C(=O)N12 please.
Output: 2.63 nM

* * *

Measured concentration at 8 h accompanies every entry in the list below.
assay protocol: Pharmacokinetics in rat plasma, IV and oral
Assay type: in vivo, male Sprague-Dawley rats
condition details: male, Sprague-Dawley; rat plasma, oral 5 mg/kg, 8 h; read-out: C8 h
Report the figure in ng/mL without appending any unit label.

C[C@H]1CO[C@@H]2Cn3cc(C(=O)NCc4ccc(F)nc4F)c(=O)c(O)c3C(=O)N12    7910

Pending compound:
Input: Quick one: concentration at 8 h of C[C@H]1CO[C@@H]2Cn3cc(C(=O)NCc4ccc(F)cc4F)c(=O)c(O)c3C(=O)N12 [CAB, Cabotegravir, reference compound] ?
Output: 4340

* * *

assay protocol: Pharmacokinetics in rat plasma, IV and oral
Assay type: in vivo, male Sprague-Dawley rats
condition details: male, Sprague-Dawley; rat plasma, oral 5 mg/kg; read-out: Cmax
measured attribute: Cmax (ng/mL)
Report the figure in ng/mL without appending any unit label.

Input: Quick one: Cmax of C[C@H]1CO[C@@H]2Cn3cc(C(=O)NCc4ccc(F)cc4F)c(=O)c(O)c3C(=O)N12 [CAB, Cabotegravir, reference compound] ?
Output: 5210
